# studyTarget: Fibroblast growth factor 2 (Homo sapiens)
# testDetails: FGF2 binders on small-molecule microarrays, primary screen, biochemical, small-molecule microarray, 635/667 nm fluorescence (AID 1133)
# testConditions: small-molecule microarray binding, FGF2, fluorescence 635/667; higher = more signal
Label label 0 if composite z-score falls below -0.2; label label 1 in every other case.

- compound: "NC(=O)NCC#Cc1ccc2c(c1)[C@]1(C(=O)N2)[C@H](C(N)=O)[C@H]2C(=O)O[C@H](c3ccccc3)[C@H](c3ccccc3)N2[C@@H]1c1ccc(O)cc1"
  studyTarget: "Fibroblast growth factor 2 (Homo sapiens)"
  classification: "label 1"
- compound: "NC(=O)NCC#Cc1ccc2c(c1)[C@]1(C(=O)N2)[C@H](C(=O)Nc2nc3ccccc3s2)[C@H]2C(=O)O[C@H](c3ccccc3)[C@H](c3ccccc3)N2[C@@H]1c1ccccc1OCCO"
  studyTarget: "Fibroblast growth factor 2 (Homo sapiens)"
  classification: "label 1"
- compound: "O=C1c2ccccc2[C@](Cc2ccccc2I)(C(=O)NCCN2CCOCC2)[C@H](c2ccc(CO)cc2)N1Cc1ccccc1Cl"
  studyTarget: "Fibroblast growth factor 2 (Homo sapiens)"
  classification: "label 1"
- compound: "COC(=O)[C@@]1(Cc2ccc(OC)cc2)[C@H]2c3cc(C(=O)N4CCCC4)n(CCN4CNCC4=O)c3C[C@H]2CN1C(=O)c1ccccc1"
  studyTarget: "Fibroblast growth factor 2 (Homo sapiens)"
  classification: "label 0"
- compound: "OCCCC1=CC(c2cccs2)N(Cc2cc3c(cc2Br)OCO3)CC1 (stereo not given)"
  studyTarget: "Fibroblast growth factor 2 (Homo sapiens)"
  classification: "label 1"
- compound: "CN1C(=O)C2C=CC(C(O)C3CC=CCC3)N(N(c3ccccc3)c3ccccc3)C2C1=O (stereo not given)"
  studyTarget: "Fibroblast growth factor 2 (Homo sapiens)"
  classification: "label 1"
- compound: "CN(C)CCCCCCNC(=O)[C@H]1C[C@H]2C(=O)N[C@@H](CCCCN)C(=O)N2[C@H]1c1cccc(OCCO)c1"
  studyTarget: "Fibroblast growth factor 2 (Homo sapiens)"
  classification: "label 1"
- compound: "COc1ccc(C#Cc2ccc3c(c2)[C@]2(C(=O)N3)[C@H](c3ccccc3OCCO)N3[C@H](c4ccccc4)[C@H](c4ccccc4)OC(=O)[C@H]3[C@@H]2C(=O)Nc2nc3ccccc3s2)cc1"
  studyTarget: "Fibroblast growth factor 2 (Homo sapiens)"
  classification: "label 1"
- compound: "CCCCN1CC=CC23O[C@@H]4C=CCCOC(=O)C4[C@H]2C(=O)N(CCCCCCO)[C@@H]3C1=O (stereo not given in full)"
  studyTarget: "Fibroblast growth factor 2 (Homo sapiens)"
  classification: "label 0"
- compound: "CN1C(=O)C2C=CC(C(O)c3ccco3)N(Nc3ccccc3)C2C1=O (stereo not given)"
  studyTarget: "Fibroblast growth factor 2 (Homo sapiens)"
  classification: "label 1"
- compound: "COC(=O)[C@@]1(Cc2ccccc2)N=C(c2ccc(OCCCO)cc2)O[C@H]1c1ccccc1"
  studyTarget: "Fibroblast growth factor 2 (Homo sapiens)"
  classification: "label 1"
- compound: "CC1(C)[C@@H]2CC(C(O)C3C=CC4C(=O)N(Cc5ccccc5)C(=O)C4N3n3cnnc3)=C[C@H]1C2 (stereo not given in full)"
  studyTarget: "Fibroblast growth factor 2 (Homo sapiens)"
  classification: "label 1"
- compound: "O=C1O[C@H](c2ccccc2)[C@H](c2ccccc2)N2[C@H]1[C@@H](C(=O)N1CCCCCCC1)[C@]1(C(=O)Nc3ccc(C#CC4=CCCCC4)cc31)[C@H]2c1ccc(OCCO)cc1"
  studyTarget: "Fibroblast growth factor 2 (Homo sapiens)"
  classification: "label 1"
- compound: "CCCc1cc2c(n1Cc1cc(F)cc(F)c1)C(C)C1CN(C(=O)c3ccccc3)C(C)(C(=O)OC)C21 (stereo not given)"
  studyTarget: "Fibroblast growth factor 2 (Homo sapiens)"
  classification: "label 0"
- compound: "C=C(COC)/C(=C/C[C@@H](OC(C)=O)c1ccc(OCCO)cc1)c1cnc2ccccc2c1"
  studyTarget: "Fibroblast growth factor 2 (Homo sapiens)"
  classification: "label 1"
- compound: "C=C[C@H](OC)[C@@H](OC(=O)Nc1ccc(OC)cc1)c1ccc(O)c(F)c1"
  studyTarget: "Fibroblast growth factor 2 (Homo sapiens)"
  classification: "label 0"
- compound: "O=C1C2C=CC(C(O)c3cccc4ccccc34)N(Nc3ccccc3F)C2C(=O)N1c1ccccc1 (stereo not given)"
  studyTarget: "Fibroblast growth factor 2 (Homo sapiens)"
  classification: "label 0"
- compound: "C[N+](C)(C)CCCC[C@@H]1NC(=O)[C@H]2C[C@@H](C(=O)NCCCCCCNC(=O)CS)[C@@H](c3cccc(OCCO)c3)N2C1=O"
  studyTarget: "Fibroblast growth factor 2 (Homo sapiens)"
  classification: "label 1"
- compound: "Cc1ccc(S[C@]2(C(=O)NCCCN(C)C)CC(=O)N(Cc3ccccc3C(F)(F)F)[C@@H]2c2ccc(CO)cc2)cc1"
  studyTarget: "Fibroblast growth factor 2 (Homo sapiens)"
  classification: "label 0"
- compound: "COCCOC(=O)N1C(=O)[C@@]2(c3cc(C#Cc4ccc(OC)cc4)ccc31)[C@H](c1ccc(OCCO)cc1)N1[C@H](c3ccccc3)[C@H](c3ccccc3)OC(=O)[C@H]1[C@@H]2C(=O)N1CCN(c2ncccn2)CC1"
  studyTarget: "Fibroblast growth factor 2 (Homo sapiens)"
  classification: "label 1"
- compound: "C=CCN1C(=O)[C@]2(O[C@H](CCn3cc([C@H](O)c4ccccc4)nn3)[C@@H]([Si](C)(C)c3ccc(OC)cc3)[C@@H]2C)c2ccccc21"
  studyTarget: "Fibroblast growth factor 2 (Homo sapiens)"
  classification: "label 0"
- compound: "CCC[C@@H]1C[C@@]1(CCC)[C@@H](NC(=O)c1ccccc1)c1cccc(Cl)c1"
  studyTarget: "Fibroblast growth factor 2 (Homo sapiens)"
  classification: "label 0"
- compound: "C=CCNC(=O)[C@H]1[C@@H]2C(=O)O[C@@H](c3ccccc3)[C@@H](c3ccccc3)N2[C@@H](c2ccccc2OCCO)[C@]12C(=O)Nc1ccc(C#CCC(C(=O)OC)C(=O)OC)cc12"
  studyTarget: "Fibroblast growth factor 2 (Homo sapiens)"
  classification: "label 1"
- compound: "COCCOC(=O)N1C(=O)[C@@]2(c3ccccc31)[C@H](c1ccc(O)cc1)N1[C@H](c3ccccc3)[C@H](c3ccccc3)OC(=O)[C@H]1[C@@H]2C(=O)Nc1nc2ccccc2s1"
  studyTarget: "Fibroblast growth factor 2 (Homo sapiens)"
  classification: "label 1"

----------
The compounds listed here are annotated with their composite z-score.
# studyTarget: Left-right determination factor 2 (Homo sapiens)
# testDetails: LEFTY2 binders on small-molecule microarrays, primary screen, biochemical, small-molecule microarray, 635 nm fluorescence scan (AID 1110)
# testConditions: LEFTY2 binding, higher = more signal
observedProperty: composite z-score

- compound: "CN1C=C(C(=O)OCCS(C)(=O)=O)C(C(=O)OCCS(C)(=O)=O)=CC(c2ccc(CO)cc2)=CC1C1CC1 (stereo not drawn)"
  quantitativeReadout: 0.328
- compound: "CC1CC/C=C\\[C@H]2OC34C=CCN(C(C)(C)C)C(=O)[C@H]3N(C(C)CO)C(=O)[C@@H]4C2C(=O)O1 (stereo partly drawn)"
  quantitativeReadout: -0.442
- compound: "CCCC[C@@H]1C[C@H]1[C@@H](NC(=O)c1ccccc1)c1ccc(C(=O)OC)cc1"
  quantitativeReadout: -1.9

----------
# System: Lefty1
# testDetails: Lefty1 binders on small-molecule microarrays, primary screen, biochemical, small-molecule microarray, 635/667 nm fluorescence (AID 1139)
# testConditions: small-molecule microarray binding, fluorescence 635/667; higher = more signal
observedProperty: composite z-score

- compoundStructureString: "C=C(/C(=C/C[C@H](OC(C)=O)c1ccccc1OCCO)c1cnc2ccccc2c1)C(C)C"
  observedProperty: "composite z-score"
  quantitativeReadout: 0.505
- compoundStructureString: "O=C1c2ccccc2[C@](Cc2ccccc2I)(C(=O)NCCN2CCOCC2)[C@H](c2ccc(CO)cc2)N1Cc1ccccc1Cl"
  observedProperty: "composite z-score"
  quantitativeReadout: 0.526
- compoundStructureString: "NC(=O)[C@@H]1[C@H]2C(=O)O[C@H](c3ccccc3)[C@H](c3ccccc3)N2[C@H](c2ccc(O)cc2)[C@@]12C(=O)Nc1ccccc12"
  observedProperty: "composite z-score"
  quantitativeReadout: -0.827
- compoundStructureString: "COCCOC(=O)N1C(=O)[C@@]2(c3cc(C#CCNC(N)=O)ccc31)[C@H](C(=O)Nc1nc3ccccc3s1)[C@H]1C(=O)O[C@H](c3ccccc3)[C@H](c3ccccc3)N1[C@@H]2c1ccc(OCCO)cc1"
  observedProperty: "composite z-score"
  quantitativeReadout: 0.9
- compoundStructureString: "COC(=O)C(CC#Cc1ccc2c(c1)[C@]1(C(=O)N2)[C@H](c2ccc(OCCO)cc2)N2[C@H](c3ccccc3)[C@H](c3ccccc3)OC(=O)[C@H]2[C@@H]1C(=O)Nc1nc2ccccc2s1)C(=O)OC"
  observedProperty: "composite z-score"
  quantitativeReadout: 0.417

Origin of the recorded values: PubChem BioAssay
